TARGET_UNDER_TEST: T1, cynomolgus monkey C-MET His tag, monomeric (cynomolgus monkey, UniProt A0M8R7 25-932 (Papio anubis entry))
T1 construct: also called monomeric cyno C-MET; cyCMET
ASSAY_DETAILS: SPR Biacore, IgG captured, monomeric C-MET-His analyte
Each record here notes measured Kd.
Return type: number; implicit unit nM.

// sample MH8 (antibody, IgG4, V domains shown) VH: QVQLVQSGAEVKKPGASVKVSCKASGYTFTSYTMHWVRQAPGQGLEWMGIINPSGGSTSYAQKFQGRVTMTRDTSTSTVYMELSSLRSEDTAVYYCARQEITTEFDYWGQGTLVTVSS VL: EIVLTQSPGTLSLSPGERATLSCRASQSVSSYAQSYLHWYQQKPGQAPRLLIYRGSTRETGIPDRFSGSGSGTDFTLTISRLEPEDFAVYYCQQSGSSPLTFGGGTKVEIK , its Kd was 1.3

---
// sample MH11 (antibody, IgG4, V domains shown) VH: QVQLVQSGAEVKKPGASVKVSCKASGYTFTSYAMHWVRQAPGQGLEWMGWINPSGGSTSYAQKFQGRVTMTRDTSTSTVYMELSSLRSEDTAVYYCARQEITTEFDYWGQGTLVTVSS VL: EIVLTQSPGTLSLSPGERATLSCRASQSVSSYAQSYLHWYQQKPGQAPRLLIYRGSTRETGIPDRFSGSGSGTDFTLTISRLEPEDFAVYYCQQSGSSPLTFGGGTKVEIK , its Kd was 1.2
